I'd be grateful if you could share measured melting point for these entries.

The examples below pair each entry with its known result.
Cl.c1nc(Nc2ccc3[nH]ccc3c2)c2cc[nH]c2n1
218 to 221 °C
Cc1cc2c(Nc3ccc(O)c(I)c3)ncnc2cn1.Cl
261 to 265 °C

Your task in this section: give melting point for each listed record.
1. C#Cc1cccc(Nc2ncnc3c2ccn3CCOCCOC)c1
2. C#Cc1cccc(Nc2ncnc3cc(C)ncc23)c1.Cl
3. CS(=O)(=O)O.Cc1cc2c(Nc3ccc4[nH]ccc4c3)ncnc2cn1
4. Cc1cc2c(N3CCc4cc(F)c(Br)cc43)ncnc2cn1.Cl
5. Cc1cc2c(Nc3ccc(Br)c(F)c3)ncnc2cn1.Cl
6. Cl.Clc1ccc2c(c1)N(c1ncnc3[nH]ccc13)CC2
7. Cc1cc2c(Nc3cccc(C(F)(F)F)c3)ncnc2cn1.Cl
8. c1ccc(Nc2ncnc3ncccc23)cc1

RESULT:
["240 to 241 °C", "240 to 241 °C", "262 to 263 °C", "262 to 264 °C", "251 to 254 °C", "266 °C (dec.)", "269 to 270 °C", "258 °C"]

// for each compound below, give its melting point
1. Cl.c1cc2c(Nc3ccc4sccc4c3)ncnc2cn1
2. C#Cc1cc(Nc2ncnc3cnc(C)cc23)ccc1F
3. Clc1ccc2c(c1)N(c1ncnc3cnccc13)CC2
4. c1ccc(Nc2ncnc3cnccc23)cc1
5. Cc1cccc(Nc2ncnc3cnccc23)c1
6. Cc1cc2c(N3CCc4ccc(Cl)cc43)ncnc2cn1

RESULT:
1: 280 to 282 °C; 2: 225 °C; 3: 194 to 196 °C; 4: 161 °C; 5: 172 °C; 6: 232 to 234 °C

QUERY: Reported melting point for Cc1cc2c(N3CCc4ccc(Br)c(C)c43)ncnc2cn1.Cl : what is it?
RESULT: 212 to 229 °C
